tested on: test plant species; experiment: Post-emergent herbicidal activity test (greenhouse, foliar spray, visual growth reduction); type: in vivo; conditions: post-emergence, 336 h, KCHSC: kochia (Bassia scoparia), 140 g ai/ha, 14 days after application, read-out: Visual Growth Reduction (%) 14 Days After Application, KCHSC
Items are presented alongside their recorded pest or weed control at 140 g/ha.

// known answers, use as guide
Q. Quick check: pest or weed control at 140 g/ha on test plant species, item COc1cc(C(F)(F)F)ccc1-c1nc(C(=O)O)c(Cl)cc1F ?
A. 75 to 84%

Q. Quick check: pest or weed control at 140 g/ha on test plant species, item COC(=O)c1nc(-c2ccc(C(F)(F)F)c(Cl)c2)ccc1Cl ?
A. 0 to 29%

Q. Quick check: pest or weed control at 140 g/ha on test plant species, item COC(=O)c1nc(-c2ccc(S(C)(=O)=O)cc2F)c(F)cc1Cl ?
A. 85 to 94%

Q. Quick check: pest or weed control at 140 g/ha on test plant species, item COC(=O)c1nc(-c2cc(C)c(C(F)(F)F)cc2F)c(F)cc1Cl ?
A. 45 to 59%

Q. Quick check: pest or weed control at 140 g/ha on test plant species, item COC(=O)c1nc(-c2ccc(C(F)(F)F)c(SC)c2Cl)ccc1Cl ?
A. 0 to 29%

Others:
Q. Quick check: pest or weed control at 140 g/ha on test plant species, item COC(=O)c1nc(-c2ccc(C(F)(F)F)c(OC)c2)ccc1Cl ?
A. 0 to 29%

Q. Quick check: pest or weed control at 140 g/ha on test plant species, item COC(=O)c1cc(Cl)cc(-c2ccc(C(F)(F)F)cc2Cl)n1 ?
A. 0 to 29%

Q. Quick check: pest or weed control at 140 g/ha on test plant species, item O=C(O)c1nc(-c2ccc3[nH]ccc3c2)c(F)cc1Cl ?
A. 0 to 29%

Q. Quick check: pest or weed control at 140 g/ha on test plant species, item COC(=O)c1nc(-c2ccc(C(F)(F)F)cc2C)c(F)cc1Cl ?
A. 60 to 74%

Q. Quick check: pest or weed control at 140 g/ha on test plant species, item O=C(O)c1nc(-c2cnc(C(F)(F)F)cc2Cl)ccc1Cl ?
A. 0 to 29%

###

test system: test plant species; test: Post-emergent herbicidal activity test (greenhouse, foliar spray, visual growth reduction); format: in vivo; conditions: post-emergence, 336 h, CIRAR: canada thistle (Cirsium arvense), 140 g ai/ha, 14 days after application, read-out: Visual Growth Reduction (%) 14 Days After Application, CIRAR
Items are presented alongside their recorded pest or weed control at 140 g/ha.

// known answers, use as guide
Q. Would you mind telling me what pest or weed control at 140 g/ha value was observed for COC(=O)c1nc(-c2ccc(C(F)(F)F)c(SC)c2Cl)ccc1Cl [F121] ?
A. 0 to 29%

Q. Would you mind telling me what pest or weed control at 140 g/ha value was observed for COC(=O)c1nc(-c2ccc(Cl)cc2Cl)ccc1C [F52] ?
A. 0 to 29%

Q. Would you mind telling me what pest or weed control at 140 g/ha value was observed for COC(=O)c1nc(-c2ccc(C(F)(F)F)cc2Br)ccc1Cl [F30] ?
A. 85 to 94%

Q. Would you mind telling me what pest or weed control at 140 g/ha value was observed for COC(=O)c1nc(-c2ccc(C(F)(F)F)cc2C)c(F)cc1Cl [F170] ?
A. 85 to 94%

Q. Would you mind telling me what pest or weed control at 140 g/ha value was observed for O=C(O)c1nc(-c2ccc(SC(F)(F)F)cc2Cl)c(F)cc1Cl [F131] ?
A. 95 to 100%

Q. Would you mind telling me what pest or weed control at 140 g/ha value was observed for COc1ncc(Cl)cc1-c1ccc(Cl)c(C(=O)O)n1 [F134] ?
A. 0 to 29%

Q. Would you mind telling me what pest or weed control at 140 g/ha value was observed for COC(=O)c1nc(-c2ccc(C(F)(F)F)nc2Cl)ccc1Cl [F8] ?
A. 85 to 94%

Q. Would you mind telling me what pest or weed control at 140 g/ha value was observed for COc1c(Cl)ccc(-c2nc(C(=O)O)c(Cl)c(Cl)c2F)c1F [F73] ?
A. 0 to 29%

Q. Would you mind telling me what pest or weed control at 140 g/ha value was observed for O=C(O)c1nc(-c2ccc(C(F)(F)F)nc2)ccc1Cl [F95] ?
A. 0 to 29%

Q. Would you mind telling me what pest or weed control at 140 g/ha value was observed for COC(=O)c1nc(-c2ccc(C(F)(F)F)cc2F)ccc1Cl [F12] ?
A. 60 to 74%

Could you now look at the following compound, please?
Q. Would you mind telling me what pest or weed control at 140 g/ha value was observed for COC(=O)c1nc(-c2ccc(C(F)(F)F)cc2F)c(F)cc1Cl [F158] ?
A. 85 to 94%

###

test system: test plant species; assay: Post-emergent herbicidal activity test (greenhouse, foliar spray, visual growth reduction); assay type: in vivo; details: post-emergence, 336 h, CIRAR: canada thistle (Cirsium arvense), 140 g ai/ha, 14 days after application, read-out: Visual Growth Reduction (%) 14 Days After Application, CIRAR
attributeMeasured: pest or weed control at 140 g/ha

// known answers, use as guide
Q. Quick check: pest or weed control at 140 g/ha on test plant species, item C#Cc1cc(C(F)(F)F)ccc1-c1ccc(Cl)c(C(=O)OC)n1 [F16] ?
A. 30 to 44%

Q. Quick check: pest or weed control at 140 g/ha on test plant species, item COC(=O)c1nc(-c2ccc(C(F)(F)F)cc2Cl)c(I)cc1Cl [F6] ?
A. 60 to 74%

Q. Quick check: pest or weed control at 140 g/ha on test plant species, item C#CCOC(=O)c1nc(-c2ccc(C(F)(F)F)cc2Cl)ccc1Cl [F45] ?
A. 95 to 100%

Q. Quick check: pest or weed control at 140 g/ha on test plant species, item COC(=O)c1nc(-c2ccc3c(c2)OC(F)(F)O3)ccc1Cl [F64] ?
A. 0 to 29%

Q. Quick check: pest or weed control at 140 g/ha on test plant species, item COC(=O)c1nc(-c2ccc(C(F)(F)F)nc2F)ccc1Cl [F167] ?
A. 0 to 29%

Others:
Q. Quick check: pest or weed control at 140 g/ha on test plant species, item COC(=O)c1nc(-c2ccc(C(F)(F)F)cc2Cl)cc(F)c1Cl [F109] ?
A. 0 to 29%

Q. Quick check: pest or weed control at 140 g/ha on test plant species, item COC(=O)c1nc(-c2ccc(SC(F)(F)F)cc2)c(Cl)cc1Cl [F98] ?
A. 0 to 29%

Q. Quick check: pest or weed control at 140 g/ha on test plant species, item COC(=O)c1nc(-c2ccc(C(F)(F)F)cc2Cl)ccc1F [F113] ?
A. 85 to 94%

Q. Quick check: pest or weed control at 140 g/ha on test plant species, item O=C(O)c1nc(-c2ccc(C(F)(F)C(=O)O)cc2Cl)ccc1Cl [F180] ?
A. 0 to 29%

###

Items are presented alongside their recorded pest or weed control at 140 g/ha.
test system: test plant species; assay: Post-emergent herbicidal activity test (greenhouse, foliar spray, visual growth reduction); format: in vivo; conditions: post-emergence, 336 h, lambsquarters (Chenopodium album), 14 Days After Application, 140 g ai/ha, read-out: Visual Growth Reduction (%) CHEAL

Q. Would you mind telling me what pest or weed control at 140 g/ha value was observed for COC(=O)c1nc(-c2cc(F)c(OC)cc2F)ccc1Cl ?
A. 45 to 59%

Q. Would you mind telling me what pest or weed control at 140 g/ha value was observed for COC(=O)c1nc(-c2ccc(C(F)(F)F)c(N)c2)ccc1Cl ?
A. 60 to 74%

Q. Would you mind telling me what pest or weed control at 140 g/ha value was observed for COC(=O)c1nc(-c2cc3c(cc2Cl)OC(F)(F)O3)ncc1Cl ?
A. 95 to 100%

Q. Would you mind telling me what pest or weed control at 140 g/ha value was observed for COC(=O)c1nc(-c2ccc(C(F)(F)F)c(F)c2F)c(F)cc1Cl ?
A. 95 to 100%

Q. Would you mind telling me what pest or weed control at 140 g/ha value was observed for CCOc1c(Cl)ccc(-c2ccc(Cl)c(C(=O)OC)n2)c1Cl ?
A. 0 to 29%

Could you now look at the following compound, please?
Q. Would you mind telling me what pest or weed control at 140 g/ha value was observed for Cc1cc(C(F)(F)F)cc(Cl)c1-c1ccc(Cl)c(C(=O)O)n1 ?
A. 75 to 84%

###

tested on: test plant species; test: Post-emergent herbicidal activity test (greenhouse, foliar spray, visual growth reduction); assay type: in vivo; details: post-emergence, 336 h, johnsongrass (Sorghum vulgare), 14 Days After Application, 140 g ai/ha, read-out: Visual Growth Reduction (%) SORVU
Items are presented alongside their recorded pest or weed control at 140 g/ha.

// known answers, use as guide
Q. Quick check: pest or weed control at 140 g/ha on test plant species, item COC(=O)c1nc(-c2ccc(C(F)(F)F)cc2C(F)(F)F)ccc1Cl [F17] ?
A. 85 to 94%

Q. Quick check: pest or weed control at 140 g/ha on test plant species, item COC(=O)c1nc(-c2ccc(C(F)(F)F)cc2Cl)c(C)cc1Cl [F5] ?
A. 30 to 44%

Q. Quick check: pest or weed control at 140 g/ha on test plant species, item C#Cc1ccc(-c2ccc(Cl)c(C(=O)OC)n2)c(Cl)c1 [F18] ?
A. 0 to 29%

Q. Quick check: pest or weed control at 140 g/ha on test plant species, item COC(=O)c1nc(-c2ccc(C(F)(F)F)cc2Cl)c(SC)cc1Cl [F7] ?
A. 0 to 29%

Others:
Q. Quick check: pest or weed control at 140 g/ha on test plant species, item COC(=O)c1nc(-c2ccc(C(F)(F)F)nc2Cl)ccc1Cl [F8] ?
A. 85 to 94%

The reported numbers originate from patent US20230017045A1.
